# Tested on: RPMI-8226
# methodSummary: NCI tumour cell line growth inhibition, 48 h
The source made the active and inactive calls. Cut-off read from the data, not from the text of the source: active = GI50 up to about 1.1 µM and inactive = higher.
endpointName: GI50

Query: Look up GI50: CNC(=O)NCNC(=O)NC
Reply: > 100 µM (inactive)

Query: Look up GI50: CC(=O)OCC1=CC2CCC3C(C)(CCC[C@]3(C)COC(C)=O)C23CC[C@H]1C3 (stereo partly drawn)
Reply: 21.6 µM (inactive)

Query: Look up GI50: O=c1[nH]cnc2c(COCCCO)c[nH]c12
Reply: > 100 µM (inactive)

Query: Look up GI50: Cc1n2nc(N)sc2n[n+]1Cc1ccccc1
Reply: > 100 µM (inactive)

Query: Look up GI50: Cc1c(/N=N/c2ccccc2)c(C)n(C2OC(CO)C(O)C(O)C2O)c(=S)c1C#N (stereo not drawn)
Reply: 40.2 µM (inactive)

Query: Look up GI50: COc1ccc(/C=C2\NC(=S)N(/C=C3\C(=O)Oc4ccccc4C3=O)C2=O)cc1OC
Reply: > 100 µM (inactive)

Query: Look up GI50: COc1cccc(/C=N/C(/N=C/c2cccc(OC)c2O)c2cccc(OC)c2O)c1O
Reply: 22 µM (inactive)

Query: Look up GI50: O=C(O)C(=C\c1ccc2c(c1)OCO2)/C(=C/c1ccc2c(c1)OCO2)C(=O)O
Reply: > 100 µM (inactive)

Query: Look up GI50: O=[N+]([O-])c1ccc(C2=NOC(c3ccccc3F)N2C23CC4CC(CC(C4)C2)C3)cc1 (stereo not drawn)
Reply: 98.9 µM (inactive)

Query: Look up GI50: CC1COS(=O)O1 (stereo not drawn)
Reply: > 100 µM (inactive)

Query: Look up GI50: COc1ccc(/C=C/C(=O)c2cc(CN(C)C)c(O)c(CN(C)C)c2)cc1
Reply: 21.8 µM (inactive)

Query: Look up GI50: CCCCCCCCCc1c(O)c(O)c(CCCCCCCCC)c(CCCCCCCCC)c1CCCCCCCCC
Reply: > 100 µM (inactive)

Query: Look up GI50: CCCNc1ncnc2[nH]ncc12
Reply: > 100 µM (inactive)
